Test system: SR
protocol: NCI tumour cell line growth inhibition, 48 h
The source made the active and inactive calls. No stated cut-off is given here; in the data, active = GI50 up to about 1.1 µM and inactive = higher.
Log the outcome using a class from active, inactive

Which result was noted for this compound in the test: COc1ccc(C2SC(C)C(=O)N2c2nc(-c3nc(-c4ccc(Cl)cc4)cs3)cs2)cc1 (centres undefined)
inactive

Lab log entry: `Cc1c(/C=N/NC(=S)Nc2ccccc2Cl)c(=O)n(-c2ccccc2)n1C` — outcome as called in the assay?
inactive

# outcome recorded in this test, key = `CO/N=C(\C(=O)Nc1cncs1)c1csc(NC(c2ccccc2)(c2ccccc2)c2ccccc2)n1`
inactive

Which result was noted for this compound in the test: `CCOC(=O)N[C@H]1CCc2cc(O)c(OC)c(OC)c2-c2ccc(SC)c(=O)cc21`
active

Recorded test call requested for COc1c2c3c4c(c(OC)c(=O)c5c(O)cc(OC)c(c6c(OC)cc(O)c(c1=O)c63)c54)C(C(C)O)C2C(C)=O (centres undefined)
active

What call does the record list for `O=[N+]([O-])c1cccc(CSc2nc(O)c3nc[nH]c3n2)c1` ?
inactive

Test call for this compound, please: `CCN1C(=O)C/C(=C\C(C)=O)Nc2ccccc21`
inactive

Please let me know the test result on file for O=[N+]([O-])c1ccc2c3ccccc3[s+]([O-])c2c1 (centres undefined) .
inactive

Each compound tested received a call. Report the one for `O=c1[nH][nH]c(=O)n1CCCCCCn1c(=O)[nH][nH]c1=O` .
inactive

// outcome(item) with item = `Cc1c(C)c2c(c(N)c1C#N)C(=O)N(Nc1ccccc1)C2=O`
inactive

Hi team, can someone confirm the assay call for `COc1ccc(/C=C/C(=O)c2ccccc2)cc1OC` ?
inactive

Answer briefly: the call reported for `COc1ccc(CC#N)c(OCc2ccccc2)c1` in this assay.
inactive

Dear all, I need the recorded test outcome for CCC12CCC[C@@]13C=C[C@H](O3)C(C)(C)C2=O (some centres undefined) , thank you.
inactive

What did the test return for `O=C(NCCN1CCOCC1)c1ccc(I)cc1` ?
inactive

So what was the verdict on `Cc1cn([C@@H]2C[C@H](CO)[C@@H]2O)c(=O)[nH]c1=O` in this test?
inactive

Test call, this compound: `COC(=O)c1ccc(NCC2=CC(=O)c3ccccc3C2=O)cc1`
inactive

// return assay outcome for N=c1[nH]cnc2c1nnn2C1C=CC(COS(N)(=O)=O)C1 (centres undefined)
inactive

State the result this test recorded for `CCN(CC)CCCNc1nncc2c(C)c3[nH]c4ccc(OC)cc4c3cc12` .
active

Which outcome was assigned to CN(C)CCOc1ccc2[nH]c(C(=O)N3CC(CCl)c4ccc(N)cc43)cc2c1 (centres undefined) in this test?
active

Test call for this compound, please: `COCCOC(=O)C(C)=[N+]=[N-]`
inactive

Would you mind telling me which call this test gave `Nc1cc([N+](=O)[O-])ccc1C(=O)N1CCC[C@H]1CO` ?
inactive

Look up the recorded call for `O=c1c2ccccc2oc2ccccc12.Oc1cccc2cccnc12` in this test.
inactive

Would you mind telling me which call this test gave `Cc1ccc(NC(=S)N/N=C(/c2ccccc2)c2ccccn2)cc1` ?
active

Any idea what this test logged for `Cc1ccc(-c2cc(-c3ccccc3)nc(N)n2)c(O)c1` ?
active

* * *

Test system: SNB-19
protocol: NCI tumour cell line growth inhibition, 48 h
Active and inactive are the calls of the source. No stated cut-off is given here; in the data, active = GI50 up to about 1.1 µM and inactive = higher. Residues, ends and D or L forms follow the SMILES beside them. *: point of attachment. Pentanoyl = CCCCC(=O)*; Boc = CC(C)(C)OC(=O)*
Provide the recorded GI50 for the entries that follow.

What measured GI50 goes with COC(=O)CNC(=O)C(CSC(=O)OCC1c2ccccc2-c2ccccc21)NC(=O)CCC(NC(=O)OCC1c2ccccc2-c2ccccc21)C(=O)OC (stereo not drawn) ?
23.8 µM (inactive)

Form field: reported GI50 of CCCCC(=O)Oc1ccc(CC(NC(=O)OC(C)(C)C)C(=O)NC(C)C(=O)NC(Cc2ccccc2)C(=O)NCC(N)=O)cc1 (stereo not drawn) (Boc-Y(Pentanoyl)AFG-NH2; configuration not given here)
23.3 µM (inactive)

What does the data say about its GI50? Entry: C=CC(COC(=O)C(C)(C)OC(C)=O)c1ccc(OC(=O)C(C)C)c(OC)c1 (stereo not drawn)
11.1 µM (inactive)

Request the reported GI50 associated with NC(CCC(=O)O)C(=O)N1CCN(c2nc(N3CCCC3)c3nc(Cl)c(NCc4ccccc4)nc3n2)CC1 (stereo not drawn)
17.5 µM (inactive)

What GI50 value was documented for this compound, CCOC(=O)C1C(=O)CC(C)(O)C(C(=O)OCC)C1c1ccc(O)c(OC)c1 (stereo not drawn) ?
> 100 µM (inactive)

# get_value(readout='GI50', item= `O=c1c2cc(-c3ccccc3)sc2nc2sc(-c3ccccc3)nn12` )
> 100 µM (inactive)

# query: GI50 of entry `COc1ccc(C2C(C#N)=C(O)NC(O)=C2C#N)cc1OC`
> 100 µM (inactive)

Could you tell me which GI50 is on file for `Cc1ccc2c(c1)[nH]c(=S)n2/C=C1\C(=O)Oc2ccccc2C1=O` ?
86.5 µM (inactive)

* * *

Test system: SNB-19
protocol: NCI tumour cell line growth inhibition, 48 h
Active and inactive are the calls of the source. Cut-off read from the data, not from the text of the source: active = GI50 up to about 1.1 µM and inactive = higher.
Bench note: report the call from label 1 for active, label 0 for inactive

Look up the recorded call for `CCOC(=O)C1C(c2ccccc2)=C(c2ccccc2)C(c2ccccc2)=C1c1ccccc1` in this test.
label 0

What is the recorded call for this compound in the test? CCN(C1=CC(=O)NC2CCCCN12)c1ccccc1 (stereo not given)
label 0

Fill in: this test's call for `O=C1c2cccc(NCCNCCO)c2C(=O)c2cccc(NCCNCCO)c21` is ___
label 1

Please indicate how the test categorized C=CCCC1(C)CCCNC1=S (stereo not given) .
label 0

Query: recorded result category for `CC(=O)Nc1n[n+]([O-])c2cc(C)ccc2[n+]1[O-]` in this test
label 0

Name the outcome recorded for COc1cc(C2S/C(=C/c3ccccc3)C(=O)N2c2cc(Cl)ccc2Cl)cc(OC)c1OC (stereo not given) in the assay.
label 0

State the result this test recorded for CN(C)CCOc1ccc2[nH]c(C(=O)N3CC(CCl)c4ccc(N)cc43)cc2c1 (stereo not given) .
label 1

Kindly provide the recorded test outcome for the following compound: C=CCC1OC(C)(C)Oc2ccc(OCOCCOC)cc21 (stereo not given)
label 0

What classification did O=C(O)CC1OCC=C2C[N+]3([O-])CCC45c6ccccc6NC4C1C2CC53 (stereo not given) end up with in this test?
label 0

Record request — test call for COc1ccc(C2SC(C)C(=O)N2c2nc(-c3nc(-c4ccc(Cl)cc4)cs3)cs2)cc1 (stereo not given)
label 0

Can you look up the reported call for CC12CCCCC1(C)C2Sc1ccccc1 (stereo not given) for me?
label 0

Record lookup: outcome of this test for `Sc1nn2c(COc3ccc(Cl)cc3)nnc2s1` ?
label 0

Any idea what this test logged for `Cc1cccc2c1C(=O)/C(=C/c1ccccc1C(=O)O)C2` ?
label 0

Tell me the assay call for `COC(=O)c1sc2c(Cl)c(Cl)sc2c1Cl` please.
label 0

Tell me the recorded outcome of this test for `COC(=O)c1ccc(NCC2=CC(=O)c3ccccc3C2=O)cc1` .
label 0

* * *

Test system: NCI-H23
protocol: NCI tumour cell line growth inhibition, 48 h
Active and inactive are the calls of the source. Cut-off read from the data, not from the text of the source: active = GI50 up to about 1.1 µM and inactive = higher.
property.label: GI50

For the compound CC(=O)OC1c2ccccc2CC2(OC(C)=O)c3ccccc3C12 (configuration not stated) , what GI50 is on record?
> 100 µM (inactive)

Look up GI50 for this compound: O=[N+]([O-])c1cccc(C2=NN(c3ccccc3)C3c4cc(Br)ccc4OCC23)c1 (configuration not stated)
> 100 µM (inactive)

May I ask what GI50 has been recorded for `O=C(O)CN(c1ccccc1)S(=O)(=O)c1ccc(Cl)cc1` ?
> 100 µM (inactive)

Dear colleague, I am looking for the recorded GI50 of the following compound: C=C(C)C1CC/C(C)=C/CC[C@]2(C)O[C@H]2CC/C(COC(C)=O)=C\[C@@H]1O (some centres not stated)
> 50 µM (inactive)

Quick one: GI50 for N#CCC1COc2ccccc2O1 (configuration not stated) ?
> 10 µM (inactive)

Name the reported GI50 value associated with the compound `O=C(O)c1ccc(/N=N/c2cc(S(=O)(=O)O)c3cccnc3c2O)cc1`
> 100 µM (inactive)

May I ask what GI50 has been recorded for `CCOC(=O)NC(=O)c1cn(CCN2CCN(C(=O)NCCCCCCNC(=O)N3CCN(CCn4cc(C(=O)NC(=O)OCC)c(=O)n(CCN(CC)CC)c4=O)CC3)CC2)c(=O)n(CCC(CC)CC)c1=O` ?
> 100 µM (inactive)

* * *

Test system: HCC 2998
protocol: NCI tumour cell line growth inhibition, 48 h
Active and inactive are the calls of the source. No stated cut-off is given here; in the data, active = GI50 up to about 1.1 µM and inactive = higher.
property.label: GI50

Any idea what GI50 was measured for `Cc1ccc(/C=C2/NC(=S)SC2=O)cc1` ?
31.2 µM (inactive)

// lookup GI50 for `CCOC(=O)C1(C#N)CC1`
> 100 µM (inactive)

Which GI50 value is on record for `CCOc1ccccc1NC(=O)C1=C(C)NC(C)=C(C(=O)Nc2ccccc2OCC)C1c1ccc([N+](=O)[O-])cc1` ?
> 100 µM (inactive)

Item under review: Cc1ccccc1NC(=O)C1C(=O)N(c2ccccc2C)C(=O)/C1=N\NC(N)=O (configuration not stated) . Reported GI50?
> 100 µM (inactive)

Reported GI50, compound COc1ccc(C2SC(C)C(=O)N2c2nc(-c3nc(-c4ccc(Cl)cc4)cs3)cs2)cc1 (configuration not stated) : ____
> 100 µM (inactive)

Consider the compound `Cn1c2c(cc(-c3ccccc3)c1=O)COc1ccccc1-2` and give its measured GI50.
24.8 µM (inactive)

Give its GI50 value. Item: O=C1NC(O)c2ccccc2O1 (configuration not stated)
> 100 µM (inactive)
